Tested on: Scirpus juncoides
measurementNotes: Paddy herbicidal activity test
Format: in vivo
measurementParameters: 1 g a.i./10 a; irrigated paddy pot; 30 days
Please provide measured herbicidal efficacy (growth inhibition level) Scirpus juncoides for the entries that follow.

Ask | Fill in herbicidal efficacy (growth inhibition level) Scirpus juncoides for CC#CCNc1c(C#N)cnn1-c1nn2c(c1Cl)CCCC2 tested with Scirpus juncoides.
Reply | 1 (1: 10% to less than 20%)

Ask | # assay system Scirpus juncoides: give herbicidal efficacy (growth inhibition level) Scirpus juncoides of C#CCCNc1c(C#N)cnn1-c1nn2c(c1Cl)CCCC2
Reply | 8 (8: 80% to less than 90%)

---

Tested on: Rice plants
measurementNotes: Paddy herbicidal activity test, phytotoxicity to transplanted rice
Type: in vivo
measurementParameters: 1 g a.i./10 a; rice transplanted at 2.0 leaf stage; 30 days
Assign phytotoxicity (growth inhibition level) Rice plants to each entry below.

Ask | Read the entry C#CCNc1c(C#N)cnn1-c1nn2c(c1Cl)CCCC2 and write its reported phytotoxicity (growth inhibition level) Rice plants.
Reply | 2 (2: 20% to less than 30%)

Ask | Entry CC#CCNc1c(C#N)cnn1-c1nn2c(c1Cl)CCCC2 needs its phytotoxicity (growth inhibition level) Rice plants filled in; supply it.
Reply | 1 (1: 10% to less than 20%)

These data points were gathered from patent US9593112B2.
